Reported EC50 hGLP1R 100% hP (CreLuc) by item:
target: human GLP-1 receptor (human, UniProt P43220 24-463); assay: cell-based or functional assay
Starred links: 1 amine or outer side, 2 acyl side, 3 side chain; linkers in the order of their positions; H or OH if unused. Non-standard residues stand in square brackets, D forms with d. Groups on a side chain read outwards from the residue. No end group written: not given here. *: point of attachment. C18 diacid = O=C(O)CCCCCCCCCCCCCCCCC(=O)*; γGlu = O=C(O)[C@H](CCC(=O)[*:2])N[*:1]; AEEA = NCCOCCOCC(=O)O; Aib = CC(C)(N)C(=O)O
Numbers only here, please. The scale is nM.

Some solved entries appear below for comparison.
INSERT INTO measurements (binder, assay_result) VALUES
  ('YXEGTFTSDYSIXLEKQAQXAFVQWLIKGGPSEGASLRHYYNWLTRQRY (Aib at 2, 13, 20; K28 side chain acylated with C18DA-gGlu-gGlu-gGlu-gGlu-gGlu-gGlu-eLys; C-terminal amide (NH2)) [Compound 265]', 2.13),
  ('Y[Aib]EGTFTSDYSI[Aib]LEKQAQ[Aib]AFVQWLIK([AEEA-AEEA-γGlu-γGlu-γGlu-γGlu-C18 diacid])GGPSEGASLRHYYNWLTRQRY-NH2 (also: TFA salt) [Compound 270]', 1.69),
  ('Y[Aib]EGTFTSDYSI[Aib]LEKQAQ[Aib]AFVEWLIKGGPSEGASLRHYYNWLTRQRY-NH2 (not fully specified (residue 28); also: TFA salt) [Compound 286]', 5.97),
  ('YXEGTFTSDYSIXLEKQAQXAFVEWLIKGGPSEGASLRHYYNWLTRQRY (Aib at 2, 13, 20; K28 side chain acylated with C18DA-gGlu-gGlu-gGlu-gGlu-gGlu-AHX; C-terminal amide (NH2)) [Compound 304]', 10.3),
  ('Y[Aib]EGTFTSDYSI[Aib]LEKQAQ[Aib]AFVEWLIKGGPEEGASLRHYYNWLTRQRY-NH2 (not fully specified (residue 28); also: TFA salt) [Compound 285]', 11.6);

Here's the next entry for you.
Requested field: EC50 hGLP1R 100% hP (CreLuc). Item: Y[Aib]EGTFTSDYSI[Aib]LEKQAQ[Aib]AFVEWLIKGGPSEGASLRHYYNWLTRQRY-NH2 (not fully specified (residue 28); also: TFA salt) [Compound 296] 3.5
